These measurements were taken from ChEMBL document CHEMBL1201862.

# Test system: HCT-116
# EXPERIMENTAL PROTOCOL: NCI tumour cell line growth inhibition, 48 h
The source made the active and inactive calls. No stated cut-off is given here; in the data, active = GI50 up to about 1.1 µM and inactive = higher.
# GI50 listing for each entry below

1) O=C1c2ccccc2-c2cccc3ccc(Cc4ccc5ccccc5c4)c1c23 ... > 100 µM (inactive)
2) N=C(N)N/N=C/c1c(-c2ccc(Cl)c([N+](=O)[O-])c2)nc2sc(Cl)cn12 ... 3.38 µM (inactive)
3) COC(=O)C1=C(C)NC(=S)NC1c1ccc(N(CCCl)CCCl)cc1Cl (stereo unspecified) ... 34 µM (inactive)
4) C/C(=N/NC(=S)Nc1ccccc1Cl)c1ccccn1 ... < 0.0129 µM (active)
5) Cn1c(=O)nc2n(-c3cc(Cl)ccc3Cl)c3ccccc3nc-2c1=O ... 4.33 µM (inactive)

Then there is this compound:
IN: Which GI50 value belongs to CCN1c2nc3ccccc3nc2N(CC)c2nc3ccccc3nc21 ?
OUT: 26.9 µM (inactive)
